# Tested on: SK-MEL-2 melanoma
# Experiment: NCI-60 one-dose screen, 48 h
# Condition Set: 10 µM
Compounds without any hit were thinned out: in the full panel of roughly 83,000, 20% have a hit. Active and inactive are the calls of the source. Rule for the calls: active = growth percent below 10; inactive = the rest.
Choose one outcome from this list and give only that: active, inactive

[[record]]
molecule = "COC(=O)CC[C@@H](C)[C@H]1CC[C@H]2[C@@H]3CC[C@@H]4C[C@H](O)CC[C@]4(C)[C@H]3C[C@H](O)[C@]12C"
target = "SK-MEL-2 melanoma"
class = "inactive"

[[record]]
molecule = "COc1ccc(/C(=N\\N)C(=O)c2ccccc2)cc1 (tested in a mixture with another compound)"
target = "SK-MEL-2 melanoma"
class = "inactive"

[[record]]
molecule = "O=C(CCNC(=O)c1nc(-c2ccccc2)n(-c2ccc(Cl)cc2)n1)NO"
target = "SK-MEL-2 melanoma"
class = "inactive"


[Q] Call for entry S=C(SSC(=S)N(c1ccccc1)c1ccccc1)N(c1ccccc1)c1ccccc1 :
[A] inactive

[Q] Call for entry Cc1ccc(-n2nnnc2N)c(C)c1 :
[A] inactive

[Q] Call for entry CCOS(=O)(=O)c1c(C(C)C)cc(C(C)C)cc1C(C)C :
[A] inactive

[Q] Call for entry COc1cccc2ccc(CC(O)(c3ccccc3)c3ccccc3)nc12 :
[A] inactive

[Q] Call for entry CS(=O)(=O)c1nccc(-c2c(-c3cccc(OCc4ccccc4)c3)nc3sccn23)n1 :
[A] inactive

[Q] Call for entry CNC(=O)c1cn(C2CC2)c2cc(N3CCN(C(=O)c4cc(OC)c(OC)c(OC)c4)CC3)c(F)cc2c1=O :
[A] inactive

[Q] Call for entry COc1cc2c(cc1NC(=O)C(F)(F)F)-c1ccc(NC(=O)C(F)(F)F)cc1C2 :
[A] inactive

[Q] Call for entry O=C1CC(=O)N(C(=O)c2nn(-c3ccc(Cl)cc3)cc2O)N1 :
[A] inactive

[Q] Call for entry COc1ccc(N(C)c2ncnc3occ(C)c23)cc1 :
[A] active

[Q] Call for entry O=C1NC(=O)c2c(CCCSc3nc4ccccc4c(=O)n3CCc3ccccc3)cccc21 :
[A] inactive

[Q] Call for entry Cc1cccc(N=Cc2ccccc2O)c1C :
[A] inactive

[Q] Call for entry C/C=C/CSC(C)(C)C(=O)NC :
[A] inactive

[Q] Call for entry NC(CSC(c1ccccc1)(c1ccccc1)c1cccc2ccccc12)C(=O)O (stereo not drawn) :
[A] inactive
